Measured Population Pyknosed Nuclei (%) values are reported for all entries that follow.
System: U2OS
test: Multiplex assay against U2OS
Assay type: toxicity, cell-based
assay conditions: human, 24 h, 1 µM, compound concentration 1 uM, replicate 2
Respond with the bare value in %.

* Cc1cn(-c2cc(NC(=O)c3ccc4c(c3)CN(c3cncnc3)C[C@@H]4C)cc(C(F)(F)F)c2)cn1 | 5
* Nc1nc2c(c(N3CCNCC3)n1)CCC1=C2[C@@H]2CCCC[C@@H]2O1 | 20
* O=C(O)c1ccc2cc(-c3ccc(O)c(C45CC6CC(CC(C6)C4)C5)c3)ccc2c1 | 3
* FC(F)c1nc2ccccc2n1-c1nc(N2CCOCC2)nc(N2CCOCC2)n1 | 5
* CC(C)Oc1ccc(C(=O)N[C@H](CNC(=O)CN(C)C)Cc2ccc(-c3cn4cccc([C@H](C)O)c4n3)cc2)cc1Cl [GSK-923295A] | 14

For the compound shown here, CN(C)CCOc1ccc(-c2nc(-c3ccncc3)c(-c3ccc4c(c3)CC/C4=N\O)[nH]2)cc1 , give the reported Population Pyknosed Nuclei (%).
38

For the compound shown here, c1ccc2oc(-c3csc(C4CCN(Cc5nc6ncccc6[nH]5)CC4)n3)cc2c1 , give the reported Population Pyknosed Nuclei (%).
6

For the compound shown here, CC(C)(C)c1cnc(CSc2cnc(NC(=O)C3CCNCC3)s2)o1 , give the reported Population Pyknosed Nuclei (%).
8

----------
Test system: Fibroblast
test: Multiplex assay against human fibroblast
Format: toxicity, cell-based
assay conditions: 24 h, 1 µM, compound concentration 1 uM, replicate 2
Measured Population Fragmented Nuclei (%) values are reported for all entries that follow.
Respond with the bare value in %.

For the molecule shown here, CNc1oc(-c2cccc3ccccc23)nc1C#N , give the reported Population Fragmented Nuclei (%).
28

For the molecule shown here, COc1cc(N2CCC(N(C)C)CC2)ccc1Nc1ncc(Cl)c(Nc2ccccc2P(C)(C)=O)n1 , give the reported Population Fragmented Nuclei (%).
43

For the molecule shown here, CCn1c(-c2nonc2N)nc2cnc(Oc3cccc(NC(=O)c4ccc(OCCN5CCOCC5)cc4)c3)cc21 [GSK-269962A] , give the reported Population Fragmented Nuclei (%).
11

----------
Measured Population Hoechst High Intensity Objects (%) values are reported for all entries that follow.
Test system: U2OS
test: Multiplex assay against U2OS
Type: toxicity, cell-based
assay conditions: human, 12 h, 10 µM, compound concentration 10 uM, replicate 1
Respond with the bare value in %.

Study these solved cases before continuing.
• Cl.Cl.Nc1ncnc2c1c(-c1cccc(OCc3ccccc3)c1)cn2[C@H]1C[C@@H](CN2CCC2)C1 = 9
• Nc1ccc(C(=O)Nc2cccc(-c3nc(N4CCOCC4)c4oc5ncccc5c4n3)c2)cn1 = 21
• COc1cc2c(Nc3ccc(NC(=O)c4ccccc4)cc3)ncnc2cc1OCCCN1CCOCC1 = 3
• CCc1cc2c(cc1CC)CC(NC[C@H](O)c1ccc(O)c3[nH]c(=O)ccc13)C2 = 4
• Cl.Cl.NC1(c2ccc(-c3nc4ccn5c(=O)[nH]nc5c4cc3-c3ccccc3)cc2)CCC1 = 9

For the compound shown here, Cc1nc(Cc2cccc(C(F)(F)F)c2)sc1-c1ccc(C(N)=O)nc1 [TP-024n] , give the reported Population Hoechst High Intensity Objects (%).
6

For the compound shown here, Cc1cn(-c2cc(NC(=O)c3ccc4c(c3)CN(c3cncnc3)C[C@@H]4C)cc(C(F)(F)F)c2)cn1 , give the reported Population Hoechst High Intensity Objects (%).
3

For the compound shown here, COc1ccc(NS(=O)(=O)c2sc3ccc(Cl)cc3c2C)cc1N1CCNCC1.Cl , give the reported Population Hoechst High Intensity Objects (%).
5

For the compound shown here, CC(=O)c1cc(-c2cc(C(=O)NC3CC3)ccc2C)c2ncccn12 , give the reported Population Hoechst High Intensity Objects (%).
6

// data source = ChEMBL document CHEMBL4689842
